- TEST_TARGET: T1, human GLP-1 receptor (hGLP-1r) (Homo sapiens, UniProt P43220)
- T1 construct: expressed in transfected cells
- T1 sequence (P43220 24-463): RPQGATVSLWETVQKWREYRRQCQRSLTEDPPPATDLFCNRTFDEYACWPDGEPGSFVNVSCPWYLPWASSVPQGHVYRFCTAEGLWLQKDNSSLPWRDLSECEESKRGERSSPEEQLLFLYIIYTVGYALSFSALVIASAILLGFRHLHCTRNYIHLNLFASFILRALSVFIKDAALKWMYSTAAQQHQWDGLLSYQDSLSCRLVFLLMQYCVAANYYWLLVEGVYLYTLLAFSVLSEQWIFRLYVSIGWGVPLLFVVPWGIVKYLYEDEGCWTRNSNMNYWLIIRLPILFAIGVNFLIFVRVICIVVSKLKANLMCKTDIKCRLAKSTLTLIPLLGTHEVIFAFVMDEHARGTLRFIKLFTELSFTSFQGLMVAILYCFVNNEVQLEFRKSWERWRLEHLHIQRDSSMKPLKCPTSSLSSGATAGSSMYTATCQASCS
- RUN_DESCRIPTION: BSA-cAMP assay, cells expressing human GLP-1 receptor
- Type: cell-based
- CONDITION_SET: Batch 1; BSA-cAMP assay; read-out: hGLP1r cAMP activity EC50

MOLECULE: IP321 (protein) YSEGTFISDYSIAMDKIHQQDFVNWLLAGGAAAGGSGSTASSGSGSATGGGGAATHTCPPC
EC50: 72 nM

MOLECULE: IP307 (protein) YSEGTFTSDVSSYMERQAIDEFIAWLLKQGAAAGGSGSTASSGSGSATGGGGAATHTCPPC
EC50: 1.6 nM

MOLECULE: IP351 (protein) YSEGTFISDYSIAMDKIHQQDFVNWLLAQKPSSGAPPPSGGGGSGGGGSGGGGSGGGGSACPPC
EC50: 110 nM

MOLECULE: IP306 (protein) YSEGTFTSDYSKLLERQAIDEFIAWLLKGGAAAGGSGSTASSGSGSATGGGGAATHTCPPC
EC50: 0.1 nM

MOLECULE: IP312 (protein) YSEGTFISDVSSYMERQAIDEFIAWLLKGGAAAGGSGSTASSGSGSATGGGGAATHTCPPC
EC50: > 5310 nM

MOLECULE: IP364 (protein) YSEGTFTSDFSKLLERQAIDEFIAWLLKGGAAAGGSGSTASSGSGSATGGGGAATHTCPPC
EC50: 0.18 nM

MOLECULE: IP373 (protein) YSEGTHTSDFSKLLERQAIDEFIAWLLKGGAAAGGSGSTASSGSGSATGGGGAATHTCPPC
EC50: 0.72 nM

MOLECULE: IP378 (protein) YSEGTFTSLYRILLERQAIDEFIAWLLKGGAAAGGSGSTASSGSGSATGGGGAATHTCPPC
EC50: 17 nM

MOLECULE: IP365 (protein) YSEGMHTSDFSKLLERQAIDEFIAWLLKGGAAAGGSGSTASSGSGSATGGGGAATHTCPPC
EC50: 0.87 nM

MOLECULE: IP310 (protein) YSEGTFTSDVSSYMERQAIDEFIAWLLKGKAAAGGSGSTASSGSGSATGGGGAATHTCPPC
EC50: 0.35 nM

MOLECULE: IP315 (protein) YSEGTFISDYSSYLERQAIDEFIAWLLKGGAAAGGSGSTASSGSGSATGGGGAATHTCPPC
EC50: > 5460 nM

MOLECULE: IP301 (protein) YSEGTFTSDVSSYLEREAIDEFIAWLLKGGAAAGGSGSTASSGSGSATGGGGAATHTCPPC
EC50: 0.31 nM

MOLECULE: IP401 (protein) YSEGTHTSDLSKLLERQAIDEFIAWLLKGGAAAGGSGSTASSGSGSATGGGGAATHTCPPC
EC50: 0.35 nM

MOLECULE: IP376 (protein) YSEGTFTSLFSKLLERQAIDEFIAWLLKGGAAAGGSGSTASSGSGSATGGGGAATHTCPPC
EC50: 2.4 nM

MOLECULE: IP366 (protein) YSEGTFTSDYRMLKERQAIDEFIAWLLKGGAAAGGSGSTASSGSGSATGGGGAATHTCPPC
EC50: 6.1 nM

MOLECULE: IP309 (protein) YSEGTFISDVSSYLERQAIDEFIAWLLKGGAAAGGSGSTASSGSGSATGGGGAATHTCPPC
EC50: 7.7 nM

MOLECULE: IP375 (protein) YSEGTHTSLFSKLLERQAIDEFIAWLLKGGAAAGGSGSTASSGSGSATGGGGAATHTCPPC
EC50: 4 nM

MOLECULE: IP367 (protein) YSEGTFTSDYRILKERQAIDEFIAWLLKGGAAAGGSGSTASSGSGSATGGGGAATHTCPPC
EC50: 4.4 nM
